Kindly supply the reported Ratio IC50 to 056-53.H4E IC50 values for the records listed here.
Biological target: T1, recombinant human IL-23R/Fc chimera (R&D Systems) (human, UniProt Q5VWK5 24-353)
T1 construct: bought; also called human IL-23R/Fc fusion protein; rhIL23RFc
T1 sequence (looked up): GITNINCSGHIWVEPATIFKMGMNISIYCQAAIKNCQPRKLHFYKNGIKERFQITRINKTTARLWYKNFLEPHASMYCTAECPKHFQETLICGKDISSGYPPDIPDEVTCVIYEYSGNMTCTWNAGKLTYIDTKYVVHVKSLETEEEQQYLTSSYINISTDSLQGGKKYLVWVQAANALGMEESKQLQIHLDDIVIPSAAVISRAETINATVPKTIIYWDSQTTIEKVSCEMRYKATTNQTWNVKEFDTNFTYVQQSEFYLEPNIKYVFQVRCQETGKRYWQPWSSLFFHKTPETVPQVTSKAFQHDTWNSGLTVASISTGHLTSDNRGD
Assay: competition ELISA against IL-23
Kindly provide the numeric value in ratio only, without the unit symbol.

## Task # lookup: Ratio IC50 to 056-53.H4E IC50 of 105-20-1H1 ATRIMER (designed binder) EPPTQKPKKIVNAKKDVVNTKMFEELKSRLDTLAQEVALLKEQQALQTVCLKGTKVHMKCFLAFTQTKTFHEASEDCISRGGTLSTPQTGSENDALYEYLRQSVGNEAEIWLGLNGSPLTNTWVDMTGARIAYKNWETEITAQPDGGWGYFGENCAVLSGAANGKWFDKRCRDQLPYICQFGIV
## Result 1.8

## Task What do you have for 105-08-2C1 ATRIMER (designed binder) EPPTQKPKKIVNAKKDVVNTKMFEELKSRLDTLAQEVALLKEQQALQTVCLKGTKVHMKCFLAFTQTKTFHEASEDCISRGGTLSTPQTGSENDALYEYLRQSVGNEAEIWLGLNGSSLTDTWVDMTGARIAYKNWETEITAQPDGGWGYFGENCAVLSGAANGKWFDKRCRDQLPYICQFGIV ?
## Result 3.6

## Task Moving on to the next binder: 105-08-1A10 ATRIMER (designed binder, Forms a homotrimer (ATRIMER) through the tetranectin coiled coil; one protomer is given., not shown: C-terminal tag) EPPTQKPKKIVNAKKDVVNTKMFEELKSRLDTLAQEVALLKEQQALQTVCLKGTKVHMKCFLAFTQTKTFHEASEDCISRGGTLSTPQTGSENDALYEYLRQSVGNEAEIWLGLNGSSITDTWVDMTGARIAYKNWETEITAQPDGGWGYFGENCAVLSGAANGKWFDKRCRDQLPYICQFGIV
## Result 4.3
